Recorded measurements of NUDT7, one per entry
Tested system: NUDT7 (Homo sapiens)
Construct: residues 14-235, E. coli, pNIC28-Bsa4, N-terminal His6 tag removed by TEV, construct 26672 Da
Sequence (P0C024 14-235): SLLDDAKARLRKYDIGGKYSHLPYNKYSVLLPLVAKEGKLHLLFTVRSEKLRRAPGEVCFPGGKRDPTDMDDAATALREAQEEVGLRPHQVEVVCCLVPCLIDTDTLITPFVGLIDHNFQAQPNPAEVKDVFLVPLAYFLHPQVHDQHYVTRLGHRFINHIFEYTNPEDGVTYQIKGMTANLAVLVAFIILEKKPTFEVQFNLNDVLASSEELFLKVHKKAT
Parameters: Intact protein LC/MS covalent labelling, fragments in pools of five, 200 uM each, 4 °C
Setup conditions: 24 h, 4 °C, pool of five; 200 µM; covalent
Experimental: Incubations were performed at 200 μM for each compound and 2 μM of protein (10 μM for BSA) for 24 h at 4 °C with moderate shaking. […] Following incubation, we used intact protein [compound left out] chromatography/mass spectrometry (LC/MS) to identify the fragments and quantify their labeling (Figure 3A). […]

>  <Compound>
CC(C)(C)N(Cc1cccc(F)c1)C(=O)CCl [PCM-0102833]

>  <NUDT7>
0

$$$$
>  <Compound>
O=C(CCl)Nc1cccc(Cl)c1Cl [PCM-0102797]

>  <NUDT7>
0.15

$$$$
>  <Compound>
C=CC(=O)NC1CCCN(C(=O)OC)C1 (stereo not drawn) [PCM-0102526]

>  <NUDT7>
0

$$$$

###

Assay overview: in vitro
Design: species or system HB2, HEK293
Setup conditions: human, ccd841 cells
API: label(entry) gives YES if the entry's viability at 48 h, 10 µM is strictly smaller than 80%; on equality or larger values it gives NO.

>  <Compound>
COC(=O)c1cc(Cl)cc(Cl)c1NC(=O)CCl [PCM-0102912]

>  <Qualitative label>
NO

$$$$
>  <Compound>
CC(C)N(C)C(=O)C1CCN(C(=O)CCl)CC1 [PCM-0102974]

>  <Qualitative label>
NO

$$$$
>  <Compound>
C=CC(=O)NC1CCCN(c2cnn(C)c2)C1 (stereo not drawn) [PCM-0102480]

>  <Qualitative label>
NO

$$$$
>  <Compound>
O=C(CCl)Nc1oncc1-c1ccccc1 [PCM-0102746]

>  <Qualitative label>
YES

$$$$
>  <Compound>
CC1CN(C(=O)CCl)CC(C)O1 (stereo not drawn) [PCM-0102796]

>  <Qualitative label>
YES

$$$$
>  <Compound>
Cc1cc(C)c(C(C)NC(=O)CCl)cc1C (stereo not drawn) [PCM-0102879]

>  <Qualitative label>
NO

$$$$
>  <Compound>
CC(=O)N1CCc2cc(NC(=O)CCl)ccc21 [PCM-0102129]

>  <Qualitative label>
YES

$$$$
>  <Compound>
CC(c1ccc(Cl)cc1)N(C)C(=O)CCl (stereo not drawn) [PCM-0102556]

>  <Qualitative label>
YES

$$$$
>  <Compound>
C=CC(=O)Nc1ccnn1-c1ccccc1C [PCM-0102643]

>  <Qualitative label>
NO

$$$$

###

Assay overview: in vitro
Design: species or system HB2, HEK293
Setup conditions: human, ccd841 cells
Values of viability at 48 h, 10 µM strictly less than 70% map to Condition met, and values of at least 70% map to Condition not met.

>  <Compound>
O=C(CCl)N1CCN(c2ccc([N+](=O)[O-])cc2)CC1 [PCM-0102094]

>  <Qualitative label>
Condition met

$$$$
>  <Compound>
C=CC(=O)N1CCNC(=O)C1c1cccs1 (stereo not shown) [PCM-0102597]

>  <Qualitative label>
Condition not met

$$$$
>  <Compound>
Cl.O=C(CCl)Nc1ccncc1 [PCM-0102930]

>  <Qualitative label>
Condition not met

$$$$
>  <Compound>
C=CC(=O)Nc1ccc2c(c1)NC(=O)CO2 [PCM-0102499]

>  <Qualitative label>
Condition not met

$$$$
>  <Compound>
C=CC(=O)NC1(C2CC2)CCOCC1 [PCM-0102450]

>  <Qualitative label>
Condition not met

$$$$
>  <Compound>
CC(NC(=O)CCl)c1ccco1 (stereo not shown) [PCM-0102798]

>  <Qualitative label>
Condition not met

$$$$
>  <Compound>
C#Cc1cccc(NC(=O)CCl)c1 [PCM-0102735]

>  <Qualitative label>
Condition not met

$$$$
>  <Compound>
CC(NC(=O)CCl)c1ccc(Cl)cc1Cl (stereo not shown) [PCM-0102212]

>  <Qualitative label>
Condition met

$$$$
>  <Compound>
CCN(C(=O)CCl)C1CC1 [PCM-0102594]

>  <Qualitative label>
Condition not met

$$$$
>  <Compound>
C=CC(=O)Nc1ccccc1C(F)(F)F [PCM-0102581]

>  <Qualitative label>
Condition not met

$$$$
>  <Compound>
C=CC(=O)NC(C)(C)c1cc(C(F)(F)F)on1 [PCM-0102528]

>  <Qualitative label>
Condition not met

$$$$
>  <Compound>
CCC1c2ccsc2CCN1C(=O)CCl (stereo not shown) [PCM-0103051]

>  <Qualitative label>
Condition met

$$$$
>  <Compound>
CN(CC12CC3CC(CC(C3)C1)C2)C(=O)CCl [PCM-0102942]

>  <Qualitative label>
Condition met

$$$$
>  <Compound>
C=CC(=O)NC1CCN(c2ccccc2C(F)(F)F)C1 (stereo not shown) [PCM-0102731]

>  <Qualitative label>
Condition not met

$$$$
>  <Compound>
Cl.O=C(CCl)N1CCN(Cc2ccc(Br)s2)CC1 [PCM-0102169]

>  <Qualitative label>
Condition met

$$$$
>  <Compound>
C=CC(=O)NCc1cnc(C)s1 [PCM-0102587]

>  <Qualitative label>
Condition not met

$$$$
>  <Compound>
O=C(CCl)NC(=O)Nc1ccc(Br)cc1 [PCM-0102308]

>  <Qualitative label>
Condition not met

$$$$
>  <Compound>
O=C(CCl)N(C1CCCCC1)C1CCS(=O)(=O)C1 (stereo not shown) [PCM-0102760]

>  <Qualitative label>
Condition met

$$$$
>  <Compound>
C=CC(=O)N1CCC(c2nc(C(F)(F)F)cs2)CC1 [PCM-0102525]

>  <Qualitative label>
Condition not met

$$$$
>  <Compound>
CC(C)(C)OC(=O)CNC(=O)CCl [PCM-0102981]

>  <Qualitative label>
Condition not met

$$$$
>  <Compound>
O=C(CCl)NC12CC3CC(CC(C3)C1)C2 [PCM-0102118]

>  <Qualitative label>
Condition not met

$$$$

###

Assay overview: in vitro
Set-up: species or system CCD841, HEK293
Setup conditions: human, hb2 cells, read-out: HB-2 Cells Viability (%)
Listed here: items and their measured viability at 48 h, 10 µM.
Test readout: viability at 48 h, 10 µM (%)

>  <Smiles text>
O=C(CCl)N1CCN(c2ccc([N+](=O)[O-])cc2)CC1

>  <Test readout>
viability at 48 h, 10 µM

>  <Unit name>
%

>  <Recorded value>
1.2

$$$$
>  <Smiles text>
O=C(CCl)Nc1ccc(O)cc1

>  <Test readout>
viability at 48 h, 10 µM

>  <Unit name>
%

>  <Recorded value>
67.8

$$$$
>  <Smiles text>
C=CC(=O)NCc1cnn2ccccc12

>  <Test readout>
viability at 48 h, 10 µM

>  <Unit name>
%

>  <Recorded value>
108

$$$$
>  <Smiles text>
O=C(CCl)N1CCN(c2ccccc2[N+](=O)[O-])CC1

>  <Test readout>
viability at 48 h, 10 µM

>  <Unit name>
%

>  <Recorded value>
8.7

$$$$
>  <Smiles text>
O=C(CCl)Nc1c(Cl)cccc1Cl

>  <Test readout>
viability at 48 h, 10 µM

>  <Unit name>
%

>  <Recorded value>
96.3

$$$$
>  <Smiles text>
Cl.O=C(CCl)N1CCN(c2cccc(Cl)c2)CC1

>  <Test readout>
viability at 48 h, 10 µM

>  <Unit name>
%

>  <Recorded value>
12

$$$$
>  <Smiles text>
O=C(CCl)NCc1ccc(F)cc1C(F)(F)F

>  <Test readout>
viability at 48 h, 10 µM

>  <Unit name>
%

>  <Recorded value>
86.6

$$$$
>  <Smiles text>
CCc1ccccc1NC(=O)CCl

>  <Test readout>
viability at 48 h, 10 µM

>  <Unit name>
%

>  <Recorded value>
78.3

$$$$
>  <Smiles text>
O=C(CCl)NCC(=O)N1CCCC1

>  <Test readout>
viability at 48 h, 10 µM

>  <Unit name>
%

>  <Recorded value>
106

$$$$
>  <Smiles text>
C=CC(=O)NC(=O)NC12CC3CC(CC(C3)C1)C2

>  <Test readout>
viability at 48 h, 10 µM

>  <Unit name>
%

>  <Recorded value>
26.6

$$$$

###

Quick list: OTUB2 per entry.
Tested system: OTUB2 (OTUB2A) (Homo sapiens, UniProt Q96DC9)
Construct: full length residues 1-234, E. coli BL21(DE3)-R3, His tag removed by TEV, construct 27312 Da
Sequence (Q96DC9 whole entry, the tested form may be a part): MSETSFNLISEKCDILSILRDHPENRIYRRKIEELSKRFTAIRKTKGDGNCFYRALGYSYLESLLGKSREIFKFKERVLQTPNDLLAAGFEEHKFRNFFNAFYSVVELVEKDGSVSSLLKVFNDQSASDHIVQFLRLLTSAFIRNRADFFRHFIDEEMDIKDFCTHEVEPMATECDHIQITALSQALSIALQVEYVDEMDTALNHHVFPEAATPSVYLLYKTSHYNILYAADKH
Set-up: Intact protein LC/MS covalent labelling, fragments in pools of five, 200 uM each, 4 °C
Setup conditions: 24 h, 4 °C, pool of five; 200 µM; covalent
Protocol: Incubations were performed at 200 μM for each compound and 2 μM of protein (10 μM for BSA) for 24 h at 4 °C with moderate shaking. […] Following incubation, we used intact protein [compound left out] chromatography/mass spectrometry (LC/MS) to identify the fragments and quantify their labeling (Figure 3A). […]

>  <Molecule>
O=C(Nc1ccccc1)C1CCN(C(=O)CCl)CC1

>  <Tested system>
OTUB2 (OTUB2A) (Homo sapiens, UniProt Q96DC9)

>  <OTUB2>
0

$$$$
>  <Molecule>
O=C(CCl)NC(=O)c1ccccc1Br

>  <Tested system>
OTUB2 (OTUB2A) (Homo sapiens, UniProt Q96DC9)

>  <OTUB2>
0

$$$$
>  <Molecule>
COc1cccc(C2CCCN2C(=O)CCl)c1 (racemic)

>  <Tested system>
OTUB2 (OTUB2A) (Homo sapiens, UniProt Q96DC9)

>  <OTUB2>
0.09

$$$$
>  <Molecule>
O=C(CCl)N=c1sccn1Cc1ccccc1

>  <Tested system>
OTUB2 (OTUB2A) (Homo sapiens, UniProt Q96DC9)

>  <OTUB2>
0.11

$$$$

Hey, just so you know, these numbers are from paper PMC6556873.
